Test system: SEM cells
protocol-summary: cell viability relative to DMSO control; higher = less cytotoxic
condition-set: RPMI 5 mM glucose + 10% FBS; 48 h; 0.569 µM
endpoint: cell viability
Returns: string containing the number followed by the unit.

COC[C@H](c1ccc(C(F)(F)F)cc1)N1CCN(C2(C)CCN(C(=O)c3c(C)ncnc3C)CC2)C[C@H]1C.O=C(O)/C=C\C(=O)O    84.5%

Lookup: cell viability / SEM cells / "CCC\C1=C\C(=O)NC(=S)N1"
6.88%

Input "CC[C@]12\C=C/CN3CC[C@]4([C@@H](N(C)C5=CC(=C(C=C45)[C@]6(C[C@H]7C[C@H](CN(C7)CC8=C6[NH]C9=C8C=CC=C9)C(C)(F)F)C(=O)OC)OC)[C@](O)([C@@H]1OC(C)=O)C(=O)OC)[C@H]23"
17.3%

Input "C[C@@H](NC(=O)c1ncnc(N)c1Cl)c1ncc(C(=O)Nc2cc(C(F)(F)F)c(Cl)cn2)s1"
127%

Input "O=C(Cc1ccc(-c2ccc(OCCN3CCOCC3)cc2)cn1)NCc1ccccc1"
14.8%

Input COc1ccc2[nH]c([S+]([O-])Cc3ncc(C)c(OC)c3C)nc2c1 (centres undefined)
96.8%

Input "COc1ccc2c(c1)c(CC(=O)OCC(=O)O)c(C)n2C(=O)c1ccc(Cl)cc1"
109%

Input "ClC1=CC\2=C(OC3=C(C=CC=C3)\N=C2N4CCNCC4)C=C1"
103%

Input COC(=O)C1C2CC3c4[nH]c5cc(OC)ccc5c4CCN3CC2CC(OC(=O)c2cc(OC)c(OC)c(OC)c2)C1OC (centres undefined)
104%

Input "COC1=CC=CC(=C1N)\C2=C\C(=O)C3=C(O2)C=CC=C3"
161%

Input "O=C1Nc2ccc(I)cc2/C1=C/c1cc(Br)c(O)c(Br)c1"
118%

Input "Cc1ccc([S+](=O)([O-])Nc2nc3ccccc3nc2Nc2ccc3nsnc3c2)cc1"
97.8%
